What kon was measured for each of the following?
Biological target: human IL-6 (human, UniProt P05231 30-212)
Sequence (P05231 30-212 limits assumed): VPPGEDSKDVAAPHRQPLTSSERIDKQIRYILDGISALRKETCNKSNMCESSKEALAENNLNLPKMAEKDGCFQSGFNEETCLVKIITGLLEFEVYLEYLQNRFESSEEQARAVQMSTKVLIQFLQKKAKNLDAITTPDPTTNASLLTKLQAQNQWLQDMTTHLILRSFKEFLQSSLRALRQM
Test: SPR (Biacore), supernatant antibody on Protein A chip, IL-6 flowed, 37 C
Express it in M⁻¹ s⁻¹; write the number only.

[Q] Given anti-IL-6 antibody, heavy chain T65D, G66D / light chain M32L, M50D, N52S, M88Q (antibody, human IgG1, V domains shown, Human IgG1) VH: EVQLVESGGGLVQPGGSLRLSCAASGFTFSPFAMSWVRQAPGKGLEWVAKISPGGSWTYYSDTVDDRFTFSLDTSKSTAYLQMNSLRAEDTAVYYCARQLWGYYALDIWGQGTLVTVSS VL: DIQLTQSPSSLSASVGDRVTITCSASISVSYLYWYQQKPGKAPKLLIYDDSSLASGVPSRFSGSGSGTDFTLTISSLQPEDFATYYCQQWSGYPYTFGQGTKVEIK , respond with its kon.
[A] 1.03e+06

[Q] Given anti-IL-6 antibody, heavy chain T65G, G66D / light chain M32L, M50D, N52S, M88Q (antibody, human IgG1, V domains shown, Human IgG1) VH: EVQLVESGGGLVQPGGSLRLSCAASGFTFSPFAMSWVRQAPGKGLEWVAKISPGGSWTYYSDTVGDRFTFSLDTSKSTAYLQMNSLRAEDTAVYYCARQLWGYYALDIWGQGTLVTVSS VL: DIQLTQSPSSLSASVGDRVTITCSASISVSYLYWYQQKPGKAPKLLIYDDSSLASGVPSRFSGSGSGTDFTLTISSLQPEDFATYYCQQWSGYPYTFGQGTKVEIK , respond with its kon.
[A] 1.53e+06

[Q] # return recorded kon for entry anti-IL-6 antibody, heavy chain T63H, G66D / light chain M32L, M50D, N52S, M88Q (antibody, human IgG1, V domains shown, Human IgG1) VH: EVQLVESGGGLVQPGGSLRLSCAASGFTFSPFAMSWVRQAPGKGLEWVAKISPGGSWTYYSDHVTDRFTFSLDTSKSTAYLQMNSLRAEDTAVYYCARQLWGYYALDIWGQGTLVTVSS VL: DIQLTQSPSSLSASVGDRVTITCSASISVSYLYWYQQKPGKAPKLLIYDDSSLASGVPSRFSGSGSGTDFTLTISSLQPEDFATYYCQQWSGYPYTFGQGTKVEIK
[A] 1.72e+06
